Reference source: patent US20250250357A1

Biological target: T1, human MSLN-R2-his protein (human, UniProt Q13421 391-486)
T1 construct: also called human MSLN-R2 protein; hMSLN-R2-his; not shown: His tag
T1 sequence (Q13421 other isoform, or with tags, fused parts or gaps): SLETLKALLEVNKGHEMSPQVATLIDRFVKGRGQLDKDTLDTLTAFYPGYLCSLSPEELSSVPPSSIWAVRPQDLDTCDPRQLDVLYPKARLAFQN
Assay: ELISA, coated antigen; antibody 0.0001 nM
Quantity Measured: OD450 (OD450)
Numbers only; they are read as OD450.

Task: Tell me its OD450 given S009-F4-127.10 (antibody, human IgG1, kappa, V domains shown, Human-murine chimeric antibody, human IgG1/kappa constant regions) VH: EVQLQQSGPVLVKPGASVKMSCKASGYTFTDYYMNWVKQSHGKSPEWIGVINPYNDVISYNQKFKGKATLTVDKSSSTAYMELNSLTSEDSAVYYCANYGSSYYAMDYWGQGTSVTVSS VL: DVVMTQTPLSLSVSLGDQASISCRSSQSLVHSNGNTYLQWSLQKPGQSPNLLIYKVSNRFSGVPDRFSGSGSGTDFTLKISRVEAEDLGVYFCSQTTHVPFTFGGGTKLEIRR as the entry.
Result: 0.06

Task: Tell me its OD450 given S009-F4-94.15 (antibody, human IgG1, kappa, V domains shown, Human-murine chimeric antibody, human IgG1/kappa constant regions) VH: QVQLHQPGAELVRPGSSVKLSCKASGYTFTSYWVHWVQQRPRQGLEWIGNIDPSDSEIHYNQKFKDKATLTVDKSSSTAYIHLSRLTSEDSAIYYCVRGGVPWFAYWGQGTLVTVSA VL: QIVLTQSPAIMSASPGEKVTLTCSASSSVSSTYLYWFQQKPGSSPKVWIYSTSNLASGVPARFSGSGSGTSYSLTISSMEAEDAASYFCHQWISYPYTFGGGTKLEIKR as the entry.
Result: 0.06

Please find the next binder below.
Task: Tell me its OD450 given S009-F5-9.16 (antibody, human IgG1, kappa, V domains shown, Human-murine chimeric antibody, human IgG1/kappa constant regions) VH: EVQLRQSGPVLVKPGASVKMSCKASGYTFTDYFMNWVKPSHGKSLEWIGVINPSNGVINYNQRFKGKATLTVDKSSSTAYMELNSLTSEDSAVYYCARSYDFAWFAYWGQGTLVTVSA VL: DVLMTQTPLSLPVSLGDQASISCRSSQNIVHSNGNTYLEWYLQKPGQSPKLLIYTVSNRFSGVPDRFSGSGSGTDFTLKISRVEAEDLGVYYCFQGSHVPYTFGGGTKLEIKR as the entry.
Result: 0.04
